Test system: aminoacyl-tRNA synthetases (aaRS) isolated from HeLa cells
Measurement Description: IC50 determination, aaRS charging and trichloroacetic acid precipitation assay, aaRS partially purified from HeLa cell extracts
Format: biochemical
Conditions: preincubation 20 minutes at 25° C., reaction 5-20 minutes
Please assign a class to every record based on measured IC50, with ranges one (below 3 nM), two (3 nM to below 30 nM), three (30 nM or more)

## Task The entry to classify is "Nc1ncnc2c1ncn2[C@@H]1O[C@H](CNS(=O)(=O)NC(=O)[C@@H](N)Cc2ccc(O)cc2)[C@@H](O)[C@H]1O" ; which class holds it?
## Result two

## Task # classify by IC50 band: "CC(C)C[C@H](N)C(=O)NS(=O)(=O)NC[C@H]1O[C@@H](n2cnc3c(N)ncnc32)[C@H](O)[C@@H]1O"
## Result one

## Task Band assignment needed for "NCC(=O)NS(=O)(=O)NC[C@H]1O[C@@H](n2cnc3c(N)ncnc32)[C@H](O)[C@@H]1O" please.
## Result three

## Task Assign a bin to "C[C@H](N)C(=O)NS(=O)(=O)NC[C@H]1O[C@@H](n2cnc3c(N)ncnc32)[C@H](O)[C@@H]1O"
## Result two

## Task Sort into band: "CC(C)[C@H](N)C(=O)NS(=O)(=O)NC[C@H]1O[C@@H](n2cnc3c(N)ncnc32)[C@H](O)[C@@H]1O"
## Result two

## Task Category of "CC[C@H](C)[C@H](N)C(=O)NS(=O)(=O)NC[C@H]1O[C@@H](n2cnc3c(N)ncnc32)[C@H](O)[C@@H]1O" :
## Result one

## Task For the record "Nc1ncnc2c1ncn2[C@@H]1O[C@H](CNS(=O)(=O)NC(=O)[C@@H](N)Cc2c[nH]cn2)[C@@H](O)[C@H]1O" , report the class its IC50 corresponds to.
## Result one

## Task Please indicate the class for "NC(=O)CC[C@H](N)C(=O)NS(=O)(=O)NC[C@H]1O[C@@H](n2cnc3c(N)ncnc32)[C@H](O)[C@@H]1O" based on its IC50.
## Result three

## Task Band assignment needed for "Nc1ncnc2c1ncn2[C@@H]1O[C@H](CNS(=O)(=O)NC(=O)[C@@H](N)CO)[C@@H](O)[C@H]1O" please.
## Result three

## Task Input "N=C(N)NCCC[C@H](N)C(=O)NS(=O)(=O)NC[C@H]1O[C@@H](n2cnc3c(N)ncnc32)[C@H](O)[C@@H]1O" ; output its category
## Result two
